Each entry below carries its reported self-cleavage.
B1: LINE1-full (parent)
chain: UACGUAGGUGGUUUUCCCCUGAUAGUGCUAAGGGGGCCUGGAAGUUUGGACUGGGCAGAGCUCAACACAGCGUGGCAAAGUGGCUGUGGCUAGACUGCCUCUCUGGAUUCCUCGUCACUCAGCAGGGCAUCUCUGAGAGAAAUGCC

# Variants of: B1
# method: self-cleavage, relative activity (ratio to wild type); higher = more cleavage; in vitro, sequencing; the parent is a self-cleaving ribozyme

chain.sequence: UACGUAGGUGGUUUUCCCCUGAUAGUGCUAAGGGGGCCAGGAAGUUUGGACUGGGCAGAGCUCAACACAGCGUGGCAAAGUGGCUGUGGCUAGACUGCCUCUCUGGAUCCCUCGUCACUCAGCAGGGCAUCUCUGAGAGAAAUGCC
self-cleavage: 1.1

chain.sequence: UACGUAGGUGGUUUUCCCCUGAUAGUGCUAAGGGGGCCUGAAAGUUUGGACUGGGCAGAGCUCAACACAGCGUGGCAAAGUGGCUGCGGCUAGACUGCCUCUCUGGAUUCCUCGUCACUCAGCAGGGCAUCUCUGAGAGAAAUGCC
self-cleavage: 0.26

chain.sequence: UACGUAGGUGGUUUUCCCCUGAUAGUGCUAAGGGGGCCUGGAAGUUUGGACUGGGCAGAGCUCAACCCAGCGUGGCAAAGUGGCUGUGGCUAGACCGCCUCUCUGGAUUCCUCGUCACUCAGCAGGGCAUCUCUGAGAGAAAUGCC
self-cleavage: 0.12

chain.sequence: UACGUAGGUGGUUUUCCCCUGAUAGUGCUAAGGGGGCCUGGAAGUUUGGGCUGGGCAGAGCUCAACACAGCGUGGCAAAGUGACUGUGGCUAGACUGCCUCUCUGGAUUCCUCGUCACUCAGCAGGGCAUCUCUGAGAGAAAUGCC
self-cleavage: 0.28

chain.sequence: UACGUAGGUGGUUUUCCCCUGAUAGUGCUAAGGGGGCCUGGAAGUUUGGACCGGGCAGAGCUCAACACAGCGUGGCAAAGUGGCUGUGGCUAGACUGCCUCUCUGGAUUCCUCGUCACUCAGCAGGGCAUCUCUGAGAAAAAUGCC
self-cleavage: 0.78

chain.sequence: UACGUAGGUGGUUUUCCCCCGAUAGUGCUAAGGGGGCCUGGAAGUUUGAACUGGGCAGAGCUCAACACAGCGUGGCAAAGUGGCUGUGGCUAGACUGCCUCUCUGGAUUCCUCGUCACUCAGCAGGGCAUCUCUGAGAGAAAUGCC
self-cleavage: 1.54

chain.sequence: UACGUAGGUGGUUUUCCCCUGAUAGUGCUAAGGGGGCCUGGAAGUUUGGACUGGGCAGAGCUCAACACAGCGUGGCAAAUUGGCUGUGGCUAGACUGCCUCUCUGGAUUCCUCGUCACUCAGCAGGGCACCUCUGAGAGAAAUGCC
self-cleavage: 0

chain.sequence: UACGUAGGUGGUUUUCCCCUGAUAGUGCUAAGGGGGCCUGGAAGUUUGGACUGGGCAGAGCUCAACACAGCGUGGCAAAGUUGCUGUGGCUAGACUGCCUCUCUGGAUUCCUCGCCACUCAGCAGGGCAUCUCUGAGAGAAAUGCC
self-cleavage: 0.84

chain.sequence: UACGUAUGUGGUUUUCCCCUGAUAGUGCUAAGGGGGCCUGGAAGUUUGGACUGGGCAGAGCUCAACACAGCGUGGCAAAGUGGCUGUGGCUAGACUGCCUCUCUGGAUUCCACGUCACUCAGCAGGGCAUCUCUGAGAGAAAUGCC
self-cleavage: 1.06

chain.sequence: UACGUAGGUGGUUUUCCCCUGAUAGUGCCAAGGGGGCCUGGAAGUUUGGACUGGGCAGAGCUCAACACAGCGUGGCUAAGUGGCUGUGGCUAGACUGCCUCUCUGGAUUCCUCGUCACUCAGCAGGGCAUCUCUGAGAGAAAUGCC
self-cleavage: 1.63

chain.sequence: UACGUAGGUGGUUUUCCCCUGAUAGUGCUAAGGGGGCCUGGAAGUUUGGACUGGGCAGAGCCCAACACAGCGUGGCAAAGAGGCUGUGGCUAGACUGCCUCUCUGGAUUCCUCGUCACUCAGCAGGGCAUCUCUGAGAGAAAUGCC
self-cleavage: 0.04

chain.sequence: UACGUAGGUGGUUUUCCCCUGAUAGUGCUAAGGGGGCCUGGAAGUUUGGACUGGGCAGAGCUCAACACAGCGUGGCAAAGUGGCUGUGGCUAGACUGCCUCCCUGGAAUCCUCGUCACUCAGCAGGGCAUCUCUGAGAGAAAUGCC
self-cleavage: 1.57

chain.sequence: UACGUAGGUGGUUUUCCCCCGAUAGUGCUAAGGGGGCCUGGAAGUUUGGACUGGGCAGAGCUCAACACAGCGUGGCAAAGUGGCUGUGGCUAGACUGCCUCUCUGGAUUCCACGUCACUCAGCAGGGCAUCUCUGAGAGAAAUGCC
self-cleavage: 0.61

chain.sequence: UACGUAGGUGGUUUUCCCCUGAUAGUGCUAAGGGGUCCUGGAAGUUUGGACUGGGCAGAGCUCAACACAGCGUGGCAAAGUGGCUGUGGCUAGACCGCCUCUCUGGAUUCCUCGUCACUCAGCAGGGCAUCUCUGAGAGAAAUGCC
self-cleavage: 0.07

chain.sequence: UACGUAGGUGGUUUUCCCCUGAUAGUUCUAAGGGGGCCUGGAAGUUUGGACUGGGCAGAGCUCAACACAGCGUGGCAAAGUGGCUGUGGCUAGACUGCCUCUCUGGAUUCCUCGUCACUCAGCAGGGCAUCUCUGAGAGAAAUGCC
self-cleavage: 0.97

chain.sequence: UUCGUAGGUGGAUUUCCCCUGAUAGUGCUAAGGGGGCCUGGAAGUUUGGACUGGGCAGAGCUCAACACAGCGUGGCAAAGUGGCUGUGGCUAGACUGCCUCUCUGGAUUCCUCGUCACUCAGCAGGGCAUCUCUGAGAGAAAUGCC
self-cleavage: 0.31

chain.sequence: UACGUAGGUGGUUUUCCCCUGGUAGUGCUAAGGGGGCCUGGAAGUUUGGACUGGGCAGAGCUCAACACAGCGUGGCAAAGUGGCUGUGGCUAGACUGCCUCUCUGGAUUCCUCGUCACUCAGCAGGGCACCUCUGAGAGAAAUGCC
self-cleavage: 1.3

chain.sequence: UACGUAGGUGGUUUUCCCCUGAUAGUGCUAAGGGGGCCUGGAAGUUUGGACUGGGCAGAGCACAACACAGGGUGGCAAAGUGGCUGUGGCUAGACUGCCUCUCUGGAUUCCUCGUCACUCAGCAGGGCAUCUCUGAGAGAAAUGCC
self-cleavage: 0.05

chain.sequence: UACGUAGGUGGUUUUCCCCUGAUGGUGCUAAGGGGGCCUGGAAGUUUGGACUGGGCAGAGCUCAACACAGCGUGGCAAAGUGGCUGUGGCUAGACUGCCUCUCUGGAUUCCUCGUCACUCAGCAGGGCAUCUCUGAGAUAAAUGCC
self-cleavage: 2.56

chain.sequence: UACGUAGGUGGUUUACCCCUGAUAGUGCUAAGGGGGCCUGGAAGUUUGGACUGGGCAGAGCUCAACACAGCGUGGCAAAGUGGCUGUGGCUAGACUGCCUCUCUGGAUUCCUCGUCACUCAGCAGGGCAUCUCCGAGAGAAAUGCC
self-cleavage: 1.19

chain.sequence: UACGCAGGUGGUUUUCCCCUGAUAGUGCUAAGGGGGCCUGGAAGUUUGGACUGGGCAGAGCUCAACACAGCGUGGCAAAGUGGCUGUGGCUAGACUGCCUCUCUGGAUUCCUCGUCACUCAGCAGGGCCUCUCUGAGAGAAAUGCC
self-cleavage: 1.69

chain.sequence: UACGUAGGUGGUUUUCCCCUGAUAGUGCUAAGGGGGCCUGGAAGUUUGGACUGGGCAGAGCUCAGCACAGCGUGGCAAAGUGGCUGUGGCUAGACUGCCUCUCUGGAUUUCUCGUCACUCAGCAGGGCAUCUCUGAGAGAAAUGCC
self-cleavage: 0.07
